src = paper PMC11277489

Collected activity at 10 µM values appear next to each entry.
Test system: HT29
Assay: NCI60 one-dose screen (10 μM), Colon Cancer
Assay type: cell-based
Details: Homo sapiens, HT-29, read-out: Growth percent rate
Give your result in % as a bare value.

// below: answered compounds
- CCC12C=CCN3CCC4(c5cc(NC(=O)CN6CCN(Cc7ccc(C(F)(F)F)cc7)CC6)c(OC)cc5N(C)C4C(O)(C(=O)OC)C1OC(C)=O)C32 (stereo not drawn) [Compound 18]: 39.3
- CC[C@]12C=CCN3CC[C@@]4(c5ccc(OC)cc5N(C)[C@H]4[C@@](O)(C(=O)OC)[C@@H]1OC(=O)CCCN1CCN(C(c4ccc(F)cc4)c4ccc(F)cc4)CC1)[C@@H]32 [Compound 25]: -83.9
- CCC12C=CCN3CCC4(c5ccc(OC)cc5N(C)C4C(O)(C(=O)OC)C1O)C32 (stereo not drawn) [Compound 13, 17-desacetylvindoline]: 102
- CC[C@]12C=CCN3CC[C@@]4(c5ccc(OC)cc5N(C)[C@H]4[C@@](O)(C(=O)OC)[C@@H]1OC(=O)CCC(=O)N1CCN(C(=O)c4ccco4)CC1)[C@@H]32 [Compound 32]: 102
- CCC12C=CCN3CC[C@@]4(c5ccc(OC)cc5N(C)[C@H]4[C@@](O)(C(=O)OC)[C@@H]1OC(C)=O)[C@@H]32 (stereo partly drawn) [Compound 1, vindoline]: 108

Would you kindly look at the next entry?
Need activity at 10 µM of CCC12C=CCN3CCC4(c5cc(NC(=O)CN6CCN(Cc7ccc(F)cc7)CC6)c(OC)cc5N(C)C4C(O)(C(=O)OC)C1OC(C)=O)C32 (stereo not drawn) [Compound 19] , thanks.
108
